System: Glycine max
Assay: Herbicidal activity, postemergence test (Example 66)
Assay type: in vivo
Settings: post; 1000 g/ha; assessed visually twenty days after spraying
Procedure: To evaluate their herbicidal activity, compounds according to the invention are tested using a representative range of plants: ZEAMX Zea mays ORYSA Oryza sativa GLXMA Glycine max BEAVA Beta vulgaris LIUUT Linum usitatissimum AVEFA Avena fatua ECHCG Echinochloa crus-galli SINAL Sinapsis alba […] The herbicidal effects of the test compounds are assessed visually twenty days after spraying the foliage and the soil and are recorded on a 0-9 scale. […]
herbicidal effects on a 0-9 scale, GLXMA vs 6: less than gives criterion met; not less than gives criterion not met.

Compound: CC(C)Cc1nsc(C(=O)NCc2cccs2)n1
Category: criterion met
//
Compound: CC(NC(=O)c1nc(-c2ccc(F)cc2)ns1)c1cccs1 (racemic)
Category: criterion not met
//
Compound: CC(NC(=O)c1nc(-c2ccccc2)ns1)c1cccs1 (racemic)
Category: criterion met
//
Compound: CC(C)Cc1nsc(C(=O)NC(C)c2cccs2)n1 (racemic)
Category: criterion met
//
Compound: CC(C)(C)c1nsc(C(=O)NCc2cccs2)n1
Category: criterion met
//
Compound: CC(C)Cc1nsc(C(=O)N[C@@H](C)c2ccccc2)n1
Category: criterion met
//
Compound: CC(C)c1nsc(C(=O)NCc2cccs2)n1
Category: criterion met
//
Compound: CC(C)c1nsc(C(=O)N[C@@H](C)c2ccccc2)n1
Category: criterion met
//
Compound: C[C@H](NC(=O)c1nsc(-c2ccc(Cl)cc2)n1)c1ccccc1
Category: criterion met
//
Compound: CC(NC(=O)c1nc(C(C)(C)C)ns1)c1cccs1 (racemic)
Category: criterion not met
//
Compound: CC(NC(=O)c1nsc(-c2ccc(Cl)cc2)n1)c1cccs1 (racemic)
Category: criterion not met
//
Compound: CC(NC(=O)c1nc(-c2cccc(C(F)(F)F)c2)ns1)c1cccs1 (racemic)
Category: criterion not met
//
Compound: C[C@H](NC(=O)c1nc(-c2ccccc2)ns1)c1ccccc1
Category: criterion met
//
Compound: CCNC(=O)c1nc(-c2ccc(F)cc2)ns1
Category: criterion met
//
Compound: O=C(NCc1cccs1)c1nc(-c2ccc(F)cc2)ns1
Category: criterion met

###

System: Abutilon theophrasti
Test: Postemergence herbicidal activity (Example 67)
Type: in vivo
Settings: pos; 800 g/ha; rated after 10-21 days
Assay readout: herbicide rating, ABUTH

Molecule: COc1ccc(-c2nsc(C(=O)NCc3cccs3)n2)cc1
Tested on: Abutilon theophrasti
Assay readout: herbicide rating, ABUTH
Result: 1 (1-5%)
--
Molecule: COc1ccc(-c2nsc(C(=O)NC(C)c3cccs3)n2)cc1 (racemic)
Tested on: Abutilon theophrasti
Assay readout: herbicide rating, ABUTH
Result: 4 (30-44%)
--
Molecule: CC(NC(=O)c1nc(-c2ccc(Cl)cc2)ns1)c1cccs1 (racemic)
Tested on: Abutilon theophrasti
Assay readout: herbicide rating, ABUTH
Result: 5 (45-64%)
--
Molecule: CCCCc1nsc(C(=O)NCc2cccs2)n1
Tested on: Abutilon theophrasti
Assay readout: herbicide rating, ABUTH
Result: 1 (1-5%)
--
Molecule: CCCCc1nsc(C(=O)NC(C)c2cccs2)n1 (racemic)
Tested on: Abutilon theophrasti
Assay readout: herbicide rating, ABUTH
Result: 6 (65-79%)
--
Molecule: COCCc1nsc(C(=O)NC(C)c2cccs2)n1 (racemic)
Tested on: Abutilon theophrasti
Assay readout: herbicide rating, ABUTH
Result: 2 (6-15%)
--
Molecule: O=C(NCc1cccs1)c1nc(C=Cc2ccccc2)ns1
Tested on: Abutilon theophrasti
Assay readout: herbicide rating, ABUTH
Result: 1 (1-5%)
--
Molecule: CC(NC(=O)c1nsc(-c2ccc(F)cc2)n1)c1cccs1 (racemic)
Tested on: Abutilon theophrasti
Assay readout: herbicide rating, ABUTH
Result: 4 (30-44%)

###

Tested on: Triticum aestivum
Test: Postemergence herbicidal activity (Example 67)
Assay type: in vivo
Conditions: pos, 800 g/ha

Molecule: COc1ccc(-c2nsc(C(=O)NC3CCCc4ccccc43)n2)cc1 (racemic)
Tested on: Triticum aestivum
TRZ AW rating: 1 (1-5%)

Molecule: O=C(Nc1ccc(F)cc1)c1nsc(-c2cccc(C(F)(F)F)c2)n1
Tested on: Triticum aestivum
TRZ AW rating: 0

Molecule: CC(NC(=O)c1nc(-c2c(F)cccc2F)ns1)c1cccs1 (racemic)
Tested on: Triticum aestivum
TRZ AW rating: 2 (6-15%)

Molecule: C[C@H](NC(=O)c1nsc(-c2cccc(C(F)(F)F)c2)n1)c1ccccc1
Tested on: Triticum aestivum
TRZ AW rating: 2 (6-15%)

Molecule: O=C(NCc1cccs1)c1nc(-c2cccc(F)c2)ns1
Tested on: Triticum aestivum
TRZ AW rating: 3 (16-29%)

Molecule: Cc1ccc(-c2nc(C(=O)NC(C)c3cccs3)ns2)cc1 (racemic)
Tested on: Triticum aestivum
TRZ AW rating: 2 (6-15%)

###

Tested on: Chenopodium album
Experiment: Preemergence herbicidal activity (Example 67)
Assay type: in vivo
Settings: pre; 800 g/ha; rated about 1-3 weeks after treatment
Measured herbicide rating, CHEAL accompanies every entry in the list below.
Assay readout: herbicide rating, CHEAL

Molecule: CC(NC(=O)c1nc(-c2ccc(Cl)cc2)ns1)c1cccs1 (racemic)
Result: 3 (16-29%)

Molecule: CC(NC(=O)c1nc(-c2ccccc2F)ns1)c1cccs1 (racemic)
Result: 5 (45-64%)

Molecule: CC(NC(=O)c1nsc(-c2cccc(C(F)(F)F)c2)n1)c1cccs1 (racemic)
Result: 3 (16-29%)

Molecule: CC(NC(=O)c1nc(C=Cc2ccccc2)ns1)c1cccs1 (racemic)
Result: 4 (30-44%)

Molecule: CCCCc1nsc(C(=O)N[C@@H](C)c2ccccc2)n1
Result: 5 (45-64%)

Molecule: CCCCc1nsc(C(=O)NCc2cccs2)n1
Result: 0

Molecule: C[C@H](NC(=O)c1nc(-c2ccc(Cl)cc2)ns1)c1ccccc1
Result: 2 (6-15%)

Molecule: CCCCc1nsc(C(=O)NC(C)c2cccs2)n1 (racemic)
Result: 6 (65-79%)

###

System: Ipomoea hederacea
Assay: Postemergence herbicidal activity (Example 67)
Type: in vivo
Details: pos, 800 g/ha
Assay readout: IPO HE rating

Compound: C[C@H](NC(=O)c1nsc(-c2ccccc2)n1)c1ccccc1
Tested on: Ipomoea hederacea
Result: 7 (80-90%)

Compound: O=C(NCc1cccs1)c1nc(-c2cccc(F)c2)ns1
Tested on: Ipomoea hederacea
Result: 3 (16-29%)

Compound: CC(NC(=O)c1nc(-c2cccc(Cl)n2)ns1)c1cccs1 (racemic)
Tested on: Ipomoea hederacea
Result: 4 (30-44%)

Compound: CC(NC(=O)c1nc(-c2cccc(F)c2)ns1)c1cccs1 (racemic)
Tested on: Ipomoea hederacea
Result: 2 (6-15%)

Compound: O=C(Nc1ccc(F)cc1F)c1nsc(-c2cccc(C(F)(F)F)c2)n1
Tested on: Ipomoea hederacea
Result: 1 (1-5%)

Compound: COc1ccc(-c2nsc(C(=O)NC(C)c3ccsc3)n2)cc1 (racemic)
Tested on: Ipomoea hederacea
Result: 0

Compound: O=C(NCc1cccs1)c1nc(-c2ccccc2F)ns1
Tested on: Ipomoea hederacea
Result: 0

Compound: O=C(Nc1cccc(F)c1)c1nsc(-c2cccc(C(F)(F)F)c2)n1
Tested on: Ipomoea hederacea
Result: 1 (1-5%)

Compound: O=C(NCc1cccs1)c1nsc(-c2ccccc2)n1
Tested on: Ipomoea hederacea
Result: 3 (16-29%)

###

Test system: Oryza sativa
Test: Herbicidal activity, preemergence test (Example 66)
Type: in vivo
Design: key: A rating of 0 indicates growth as untreated control; a rating of 9 indicates death
Conditions: pre; 1000 g/ha; assessed visually twenty days after spraying
Experimental: To evaluate their herbicidal activity, compounds according to the invention are tested using a representative range of plants: ZEAMX Zea mays ORYSA Oryza sativa GLXMA Glycine max BEAVA Beta vulgaris LIUUT Linum usitatissimum AVEFA Avena fatua ECHCG Echinochloa crus-galli SINAL Sinapsis alba […] The herbicidal effects of the test compounds are assessed visually twenty days after spraying the foliage and the soil and are recorded on a 0-9 scale. […]
Each entry below carries its reported herbicidal effects on a 0-9 scale, ORYSA.

Compound: CC(C)Cc1nsc(C(=O)NCc2cccs2)n1 [Example 11]
Tested on: Oryza sativa
herbicidal effects on a 0-9 scale, ORYSA: 0
--
Compound: C[C@H](NC(=O)c1nc(-c2ccccc2)ns1)c1ccccc1 [Example 5]
Tested on: Oryza sativa
herbicidal effects on a 0-9 scale, ORYSA: 0
--
Compound: CCNC(=O)c1nc(-c2ccc(F)cc2)ns1 [Example 17]
Tested on: Oryza sativa
herbicidal effects on a 0-9 scale, ORYSA: 0

###

Test system: Hordeum vulgare
Assay: Postemergence herbicidal activity (Example 67)
Type: in vivo
Conditions: pos, 800 g/ha
Readings of HOR VW rating for the listed compounds

Compound: CC(NC(=O)c1nc(-c2c(F)cccc2F)ns1)c1cccs1 (racemic) [Example 58]
HOR VW rating: 3 (16-29%)
//
Compound: O=C(Nc1ccc(F)cc1)c1nsc(-c2cccc(C(F)(F)F)c2)n1 [Example 63]
HOR VW rating: 1 (1-5%)
//
Compound: O=C(NCc1cccs1)c1nc(-c2c(F)cccc2F)ns1 [Example 60]
HOR VW rating: 0
//
Compound: CC(NC(=O)c1nc(-c2cccc(F)c2)ns1)c1cccs1 (racemic) [Example 43]
HOR VW rating: 2 (6-15%)
//
Compound: O=C(NC1CCCc2ccccc21)c1nc(-c2ccccc2F)ns1 (racemic) [Example 53]
HOR VW rating: 2 (6-15%)
//
Compound: O=C(NCc1cccs1)c1nc(-c2ccccc2F)ns1 [Example 50]
HOR VW rating: 2 (6-15%)
//
Compound: COc1ccc(-c2nsc(C(=O)NC3CCCc4ccccc43)n2)cc1 (racemic) [Example 54]
HOR VW rating: 3 (16-29%)
//
Compound: CC(NC(=O)c1nsc(-c2ccccc2F)n1)c1cccs1 (racemic) [Example 57]
HOR VW rating: 4 (30-44%)
//
Compound: O=C(Nc1ccc(F)cc1F)c1nsc(-c2cccc(C(F)(F)F)c2)n1 [Example 62]
HOR VW rating: 0
//
Compound: C[C@H](NC(=O)c1nsc(-c2cccc(C(F)(F)F)c2)n1)c1ccccc1 [Example 42]
HOR VW rating: 2 (6-15%)
//
Compound: O=C(Nc1cccc(F)c1)c1nsc(-c2cccc(C(F)(F)F)c2)n1 [Example 65]
HOR VW rating: 1 (1-5%)
//
Compound: O=C(Nc1ccccc1)c1nsc(-c2cccc(C(F)(F)F)c2)n1 [Example 64]
HOR VW rating: 1 (1-5%)
//
Compound: C[C@H](NC(=O)c1nsc(-c2ccccc2)n1)c1ccccc1 [Example 48]
HOR VW rating: 7 (80-90%)
//
Compound: C[C@H](NC(=O)c1nc(-c2c(F)cccc2F)ns1)c1ccccc1 [Example 59]
HOR VW rating: 3 (16-29%)
//
Compound: COc1ccc(-c2nc(C(=O)NC(C)c3cccs3)ns2)cc1 (racemic) [Example 51]
HOR VW rating: 5 (45-64%)
//
Compound: C[C@H](NC(=O)c1nsc(-c2ccccc2F)n1)c1ccccc1 [Example 56]
HOR VW rating: 5 (45-64%)
//
Compound: C[C@H](NC(=O)c1nsc(-c2ccc(F)cc2)n1)c1ccccc1 [Example 40]
HOR VW rating: 6 (65-79%)
//
Compound: C[C@H](NC(=O)c1nc(-c2cccc(Cl)n2)ns1)c1ccccc1 [Example 46]
HOR VW rating: 6 (65-79%)
//
Compound: COc1ccc(-c2nsc(C(=O)Nc3cccc4c3CCCC4)n2)cc1 [Example 55]
HOR VW rating: 2 (6-15%)

Origin of the recorded values: patent EP0726261A1
